# Tested on: MS2 coat protein
# Assay explanation: apparent KD of MS2 coat protein; designed switch direction (-1 OFF switch, 1 ON switch): -1; higher = weaker reporter binding
# Condition notes: input ligand: none
Parameter threshold = 30 nM. Response is 1 when apparent KD of MS2 coat protein meets or exceeds it, else -1.

| Sequence entry | Category label |
| --- | --- |
| UGUUGUCGCGCAGGAUAUGUAUGAGGAUCACCCAUUAAUAAAUUUUAACCACGAGGAUCACCCGUGUAGAAGGGCGCGACAACA [pwkr exNG2 2xF5 1xFMN.17] (Eterna round: R96, puzzle: Exclusion NG 2) | 1 |
| UCUAGUUCAGGAUAUGUAGAUUUUAACAUGAGGAUCACCCAUGUAGAUCCUGAAUUAGCUACAGAAGGGAACAUUU [Mod of Brourd 2 - Jieux - Exclusion 5] (Eterna round: R97, puzzle: Exclusion 5) | -1 |
| GAGUACAGAGGAUAUACAUGAGGAUCACCCAUGUGUUUCAGCUAGGAGACUAGCGAAAGUAGAAGGCUGUACUG [salish99_ex3_r4_006] (Eterna round: R97, puzzle: Exclusion 3) | -1 |
| AAUAACAUGUUGAUCAAAUACAUGAGGAUCACCCAUGUAUGCUUUUUGCUCGAUAAGAUCAACUAAUAAUAAUAAUA [StovNew/1-A] (Eterna round: R97, puzzle: Sensor, turn-off variant 1) | -1 |
| UGAUCAGACCGAGGAUAUAUAUGUAGGACCCACGUGAGUGGGUCCAGAACAUGAGGAUCACCCAUGUAGAAGGCGGUCUGAUCU [JL ENG2 1.88] (Eterna round: R96, puzzle: Exclusion NG 2) | -1 |
| UCCUCACAUGAGGAUCACCCAUGUUAGGAUAUCCACCGUUGAUGGUGCCGAAUCGGUAGGAGAAGGAACAUACA [EX1 B.18] (Eterna round: R97, puzzle: Exclusion 1) | -1 |
| CCGGUAGCAUAGGAUAUCGCCAACGUUGUAGUACGAGAAGGGUGCACAUGAGGAUCACCCAUGUUUCCUGGCCG [Eternabot (L2) Solution 63] (Eterna round: R97, puzzle: Exclusion 6) | 1 |
| GUUCGACAUGAGGAUCACCCAUGUGAGGAUAUACGAUUAGCUGCUAGGUAGUUAGUAUGUAGAAGGUGCGUGUA [EX1 #71] (Eterna round: R97, puzzle: Exclusion 1) | 1 |
| CUAAAUCAUGUAGGAUAUGCGUGGCAAAGCUAUGCAGAAGGACAUGAGGAUCACCCAUGUCUUUCCGUCUGAGUACAGACGGGA [Mat - Exclusion NG 1 - Mod of JL - D46] (Eterna round: R96, puzzle: Exclusion NG 1) | -1 |
| GUCACAUGGGUGUAGAAUCACAUGAGGAUCACCCAUGUGACUAACAAGCUUUUUGCUCGUCUUAUGUCUAUGUGAAU [Stov1/17-A2] (Eterna round: R97, puzzle: Sensor, turn-off variant 1) | 1 |
| AAAUACGCUGAGGAUAUGCGGCGCACAAAAUAAGCAGAAGGCAGCACUUGAGGAUCACCCAAGUGGCCCGAGAA [Enusrees] (Eterna round: R97, puzzle: Exclusion 6) | -1 |
| GGUCGGCGAGGAUAUACAUGAGGAUCACCCAUGUGAUAGAUUAUCGCGAAAGCGUAAUGUAGAAGGCGCUGACG [jl-ex3-4.10 jl mod] (Eterna round: R97, puzzle: Exclusion 3) | 1 |
| AGCCUAGCAGGAUAUGCCCGGGAUAACAUGAGGAUCACCCAUGUGACUGAUUGAUGUCCUGCAGAAGGGCUAGGGA [JL-EX5-4.01 ViennaUCT mod] (Eterna round: R97, puzzle: Exclusion 5) | -1 |
| UGAUUCGGAGGAUAUACAUGAGGAUCACCCAUGUUACCGGAAGGUAGGAGAGGUCGCCGUAGAAGGCUGCACAU [Eternabot (Original) Solution 7] (Eterna round: R97, puzzle: Exclusion 3) | 1 |
| GAAAGGUAAGGAUAUGCGACUACGGUGAGAUGGUUGACCUGACAUGAGGAUCACCCAUGUAGAAGGUGCUCAAU [Eternabot (L2) Solution 33] (Eterna round: R97, puzzle: Exclusion 2) | 1 |
| AGAUCUAGGACAGGAUAUACGGAUGUCUUCAUCGAAGAUGAAGACAUUACAUGAGGAUCACCCAUGUAGAAGGGUCCUAGAUCA [Omei Exc(NG) 2Av1] (Eterna round: R96, puzzle: Exclusion NG 2) | -1 |
| AGUACUAUCACGAGAGUGAUAGUACAUUAAACUUGUGAGACAUGAGGAUCACCCAUGUCCUCAUGAGCUCGUCUUAA [Mat - Sensor v2 - var 2 - Mod - D185] (Eterna round: R96, puzzle: Sensor v2, turn-off variant 2) | 1 |
| GCAUUCUGAGGAUAUACAUGAGGAUCACCCAUGUUGAGAAAUAAGAAUAAGUACUUAAGUAGAAGGCAGAGUGC [JR_Ex3_Sub074] (Eterna round: R97, puzzle: Exclusion 3) | -1 |
